- Test system: NCI-H23 lung
- Test Description: NCI tumour cell line growth inhibition, 48 h
Items are presented alongside their recorded TGI.

Here are 6 molecules together with their reported answers.
>>> reported("Cc1ncc([N+](=O)[O-])n1CCn1ccnc1[N+](=O)[O-]")
"> 100 µM"
>>> reported("C=CCN1C(=O)c2cccc3c(N4CCOCC4)ccc(c23)C1=O")
"> 100 µM"
>>> reported("CN=c1ssc(/N=C(\\SC)N(C)C)[n+]1C")
"> 100 µM"
>>> reported("O=c1[nH]c(=O)n(COCCOCc2ccccc2)cc1Nc1ccccc1")
"> 100 µM"
>>> reported("COc1ccc(-c2cn[nH]c2-c2cc(OC)c(OC)c(OC)c2)cc1OCc1ccccc1")
"31.7 µM"
>>> reported("O=c1cc(-c2ccccc2)nc(-n2[nH]c3c(c2=O)CCCC3)[nH]1")
"> 100 µM"

What TGI appears in the records for this molecule with NCI-H23 lung? `O=S(=O)(c1ccc(Cl)cc1)c1ccccc1C1=NCCN1`
> 100 µM

Observed TGI on NCI-H23 lung for `CCCCCCCCCCc1c2nc(c(CCCCCCCCCC)c3ccc([nH]3)c(CCCCCCCCCC)c3ccc([nH]3)c(CCCCCCCCCC)c3nc1C=C3)C=C2` , please.
> 100 µM
